System: DYRK1B
SETTINGS: concentration: 1 μM, replicates: in singlicate; n = 1;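 further: KINOMEscan kinase panel screen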
REPORTED_ENDPOINT: %Inh (%)
Answers are plain numbers, in %.

Here is how some molecules turned out for %Inh.
MOLECULE | TGT | %Inh, %
COc1ccc(CNC(=O)NC2CCN(c3ccnc(Nc4ccc(F)cc4)n3)C2)cc1 (stereo not drawn) | DYRK1B | 0
O=C(Nc1n[nH]c2nc(-c3ccccc3)c(Cl)cc12)C1CC1 | DYRK1B | 3
CCC(=O)c1c(-c2ccccc2)c2cc(Cl)ccc2c(=O)n1Cc1cc(S(C)(=O)=O)n(CC(N)=O)n1 | DYRK1B | 0
Cl.NS(=O)(=O)c1cccc(Nc2cc(-c3ccc(F)cc3)n[nH]2)c1 | DYRK1B | 0
CCc1ccc(-c2ccc3c(c2)-c2nn(C)cc2S(=O)(=O)N3C)cc1 | DYRK1B | 0

Dear reader, for each entry below, please note its %Inh.
1. OCCCNc1nccc(-c2c(-c3cccc(C(F)(F)F)c3)nn3cc(C(F)(F)F)ccc23)n1
2. C[C@@H]1CC[C@H](C(=O)NC2CCCCC2)CN1c1cc(-c2ccc3c(N)n[nH]c3c2)nc(N)n1
3. Cc1cccc(-c2cc(-c3c[nH]nc3-c3ccccn3)ccn2)c1
4. COc1cccc(C2=C(N(C)c3ccccc3)C(=O)NC2=O)c1
5. Nc1n[nH]c2nnc(-c3ccccc3)c(-c3ccccc3)c12
6. COc1cc2nccc(Nc3ccc(OCc4ccc(NC(C)=O)cc4)cc3)c2cc1OC.Cl
7. Cn1c(=O)c(F)c(Nc2ccc(I)cc2F)c2c(=O)n(OC[C@H](O)CO)cnc21
8. FC(F)(F)c1ccc(-c2ncn(CCCN3CCOCC3)c2-c2ccncc2)cc1

1: 0; 2: 6; 3: 0; 4: 0; 5: 0; 6: 1; 7: 0; 8: 0

Dear reader, for each entry below, please note its %Inh.
1. COc1cc2ncn(-c3cc(OCCCc4ccccc4)c(C(N)=O)s3)c2cc1OC
2. Cc1nnc(-c2ccc(C)c(-c3ccc(C(=O)O)cc3)c2)o1
3. O=C(Nc1n[nH]c2cc(-c3ccccc3F)ccc12)C1CC1
4. COc1cccc(C2=C(Nc3cccc(C(=O)O)c3)C(=O)NC2=O)c1

1: 0; 2: 0; 3: 0; 4: 0

====

System: PRKX
SETTINGS: concentration: 1 μM, replicates: in singlicate; n = 1
Assignment: determine reported %Inh for the given compounds.
One number for each entry, in %.

COMPOUND | TGT | %Inh, %
Nc1ncnc2c1ncn2-c1cccc(F)c1 | PRKX | 0
O=C(NCCNc1ccnc(Nc2ccc(F)cc2)n1)Nc1ccc2c(c1)OCO2 | PRKX | 30
O=c1cc(N2CCOCC2)nc2n(Cc3ccc(F)c(Cl)c3)ccn12 | PRKX | 20
CN1C(=O)C(Nc2ccccc2)=C(c2ccccc2)C1=O | PRKX | 0
OCCCNc1nccc(-c2c(-c3cccc(C(F)(F)F)c3)nn3cc(C(F)(F)F)ccc23)n1 | PRKX | 0

Dear reader, for each entry below, please note its %Inh.
1. Cc1cccc(-c2nc(Nc3ccc4c(cnn4C)c3)c3ccccc3n2)n1
2. CCn1c(-c2ccoc2)nc2cnccc21
3. CCS(=O)c1ccc(-c2coc3ccc(-c4nnc(C)o4)cc23)cc1 (centres unmarked)

1: 0; 2: 0; 3: 0

Dear reader, for each entry below, please note its %Inh.
1. Nc1n[nH]c2nnc(-c3ccccc3)c(-c3ccccc3)c12
2. Cc1nn2c(=O)cc(N3CCOCC3)nc2n1Cc1cccc(Cl)c1Cl
3. COc1ccc(-c2cc3c(C)nc(N)nc3n([C@H]3CC[C@H](O)CC3)c2=O)cn1

[18, 8, 0]
